Each recorded value in this set is attributed to patent US20250333515A1.

target: biotinylated recombinant human CLL-1 extracellular domain protein, isoform with glutamine at amino acid position 244 (human) (UniProt Q5QGZ9); experiment: BLItz, 1:1 model (Q244 per FIG. 12B)
Sequence (Q5QGZ9 65-265): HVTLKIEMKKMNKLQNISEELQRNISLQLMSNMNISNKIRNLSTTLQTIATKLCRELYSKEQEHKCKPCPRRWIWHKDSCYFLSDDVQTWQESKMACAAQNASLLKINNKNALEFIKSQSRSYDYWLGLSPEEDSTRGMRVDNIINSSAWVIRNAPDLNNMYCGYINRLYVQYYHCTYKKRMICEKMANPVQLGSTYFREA
QUANTITY KIND: koff (s⁻¹)
Give just the numeric value; s⁻¹ need not be written.

BINDER: Anti-CLL-1 Binder Clone 6 (scFv, not shown: small tags and cut ends) scFv: QSVLTQPPSVSAAPGQKVSIFCSGGSSNIGKNYVSWYQQLPGTAPKLLIYENQHRPSGIPDRFSGSKSGTSATLGITGLQTGDEADYYCATWDDSLSAGVFGGGTELTVLGGGGSGGGGSGGGGSQLVQSGAEVRKPGESLKISCKGSGYSFTSYWIGWVRQMPGKGLEWMGFIYPGDSDTRYSPSFQGQVTISADKSISTAYLQRSSLKASDTAMYYCARLGGYSGYDSEVFYLDYWGQGTTVTVSS
MEASURE UNIT: s⁻¹
QUANTITATIVE READOUT: 0.00029

Next binder, koff to be filled in.
Enquiry: What value of koff has been reported for the following binder? Anti-CLL-1 Binder Clone 2 (scFv, not shown: small tags and cut ends) scFv: QSVLTQPLSVSVALGQTARITCGGNNIGSKNVHWYQQKAGQAPVLVIQRDSNRPSGIPERFSGSNSGNTATLTISRAQAGDEADYFCQVWDSNTYVFGTGTKLTVLGGGGSGGGGSGGGGSEVQLVESGGGLVKPGGSLRLSCAASGFTFSDYYMSWIRQAPGKGLEWVSYISSSGSTIYYADSVKGRFTISRDNAKNSLYLQMNSLRDEDTAVYYCARQSAEIVGAFDHWGQGTMVTVSS
Return: 0.0033
